# tgt: Polyspecificity Reagent (PSR)
# method summary: flow cytometry, IgG presented on yeast, biotinylated PSR, normalised MFI
measure: Polyspecificity Reagent (PSR) Score (0-1)

binder	endpoint result
anti-TIGIT antibody clone 29527 (antibody, V domains shown) VH: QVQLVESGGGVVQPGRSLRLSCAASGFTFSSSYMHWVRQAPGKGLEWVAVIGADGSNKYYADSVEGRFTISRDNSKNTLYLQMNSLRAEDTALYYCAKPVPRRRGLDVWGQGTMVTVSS VL: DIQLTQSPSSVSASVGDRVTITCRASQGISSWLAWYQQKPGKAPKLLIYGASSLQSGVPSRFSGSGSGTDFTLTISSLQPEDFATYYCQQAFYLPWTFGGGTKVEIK	0.12 score (0-1)
anti-TIGIT antibody clone 29494 (antibody, V domains shown) VH: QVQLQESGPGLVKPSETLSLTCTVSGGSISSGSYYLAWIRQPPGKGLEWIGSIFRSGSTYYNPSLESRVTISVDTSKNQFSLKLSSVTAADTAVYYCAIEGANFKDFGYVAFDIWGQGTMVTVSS VL: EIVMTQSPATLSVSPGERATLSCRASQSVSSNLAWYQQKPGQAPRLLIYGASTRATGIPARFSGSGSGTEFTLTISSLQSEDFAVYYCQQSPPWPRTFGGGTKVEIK	0 score (0-1)
anti-TIGIT antibody clone 29499 (antibody, V domains shown) VH: QLQLQESGPGLVKPSETLSLTCTVSGGSISSSRYYWAWIRQPPGKGLEWIGSIGTSGSTYYNPSLKSRVTISVDTSKNQFSLKLSSVTATDTAVYYCAIEGANFRDFGYVAFDIWGQGTMVTVSS VL: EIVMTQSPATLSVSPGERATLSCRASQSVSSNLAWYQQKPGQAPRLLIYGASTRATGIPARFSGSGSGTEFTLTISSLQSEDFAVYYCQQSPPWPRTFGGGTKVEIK	0.1 score (0-1)
anti-TIGIT antibody clone 31288 (antibody, V domains shown) VH: QLQLQESGPGLVKPSETLSLTCTVSGGSISSGSYYLAWIRQPPGKGLEWIGSIFRSGSTYYNPSLESRVTISVDTSKNQFSLKLSSVTAADTAVYYCAIEGANFKDFGYVAFDIWGQGTTVTVSS VL: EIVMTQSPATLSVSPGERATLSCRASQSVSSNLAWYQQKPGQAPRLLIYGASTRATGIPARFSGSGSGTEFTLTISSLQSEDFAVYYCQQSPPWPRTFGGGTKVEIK	0 score (0-1)
anti-TIGIT antibody clone 26493 (antibody, V domains shown) VH: EVQLVESGGGLVQPGRSLRLSCAASGFTFGDYAMHWVRQAPGKGLEWVSGITWNSGSIGYADSVKGRFTISRDNAKNSLYLQMNSLRAEDTALYYCAKPVPKSRGLDVWGQGTMVTVSS VL: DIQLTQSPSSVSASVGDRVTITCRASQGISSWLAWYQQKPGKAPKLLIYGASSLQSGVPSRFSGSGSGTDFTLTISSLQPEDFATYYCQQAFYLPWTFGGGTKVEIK	0 score (0-1)
anti-TIGIT antibody clone 29513 (antibody, V domains shown) VH: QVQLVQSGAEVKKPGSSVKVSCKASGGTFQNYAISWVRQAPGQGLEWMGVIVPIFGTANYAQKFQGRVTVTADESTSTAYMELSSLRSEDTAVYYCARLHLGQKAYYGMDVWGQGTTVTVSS VL: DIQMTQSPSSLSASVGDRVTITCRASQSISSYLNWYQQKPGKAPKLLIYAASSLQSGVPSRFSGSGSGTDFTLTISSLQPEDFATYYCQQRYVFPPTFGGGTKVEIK	0.01 score (0-1)
anti-TIGIT antibody clone 29520 (antibody, V domains shown) VH: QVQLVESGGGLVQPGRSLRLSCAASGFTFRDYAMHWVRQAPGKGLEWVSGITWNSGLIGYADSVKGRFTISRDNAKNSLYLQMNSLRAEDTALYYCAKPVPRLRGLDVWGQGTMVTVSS VL: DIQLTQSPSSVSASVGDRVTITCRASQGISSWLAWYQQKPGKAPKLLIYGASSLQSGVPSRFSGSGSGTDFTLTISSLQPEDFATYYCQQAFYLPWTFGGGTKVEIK	0.32 score (0-1)

Source of measurements: patent US20190100591A1
